conditions: in methanol, 318.15 K
VALUE_KIND: solubility (mole fraction)

>>> numeric_result("CCCSc1ccc2nc(NC(=O)OC)[nH]c2c1")
0.000381

* * *

details: in water, 288.15 K
VALUE_KIND: solubility (mole fraction)

>>> result("CCCSc1ccc2nc(NC(=O)OC)[nH]c2c1")
"2.9e-07"

* * *

conditions: in water, 293.15 K
VALUE_KIND: solubility (mole fraction)

>>> numeric_result("CCCSc1ccc2nc(NC(=O)OC)[nH]c2c1")
"3.99e-07"

* * *

settings: in water, 313.15 K
VALUE_KIND: solubility (mole fraction)

>>> numeric_result("CCCSc1ccc2nc(NC(=O)OC)[nH]c2c1")
"1.19e-06"

* * *

conditions: in isopropanol, 308.15 K
VALUE_KIND: solubility (mole fraction)

>>> numeric_result("CCCSc1ccc2nc(NC(=O)OC)[nH]c2c1")
0.00033

* * *

settings: in water, 303.15 K
VALUE_KIND: solubility (mole fraction)

>>> result("CCCSc1ccc2nc(NC(=O)OC)[nH]c2c1")
"6.93e-07"

* * *

settings: in isopropanol, 288.15 K
VALUE_KIND: solubility (mole fraction)

>>> numeric_result("CCCSc1ccc2nc(NC(=O)OC)[nH]c2c1")
0.000158

* * *

conditions: in water, 323.15 K
VALUE_KIND: solubility (mole fraction)

>>> numeric_result("CCCSc1ccc2nc(NC(=O)OC)[nH]c2c1")
"1.98e-06"

* * *

conditions: in methanol, 293.15 K
VALUE_KIND: solubility (mole fraction)

>>> numeric_result("CCCSc1ccc2nc(NC(=O)OC)[nH]c2c1")
0.000159

* * *

settings: in methanol, 313.15 K
VALUE_KIND: solubility (mole fraction)

>>> numeric_result("CCCSc1ccc2nc(NC(=O)OC)[nH]c2c1")
0.000327

* * *

settings: in methanol, 283.15 K
VALUE_KIND: solubility (mole fraction)

>>> result("CCCSc1ccc2nc(NC(=O)OC)[nH]c2c1")
0.000109
